Listing: Ki of selected compounds
target: Human recombinant CXCR2 receptor (Homo sapiens, UniProt P25025); construct: Biosignal Packard Inc. (Kb, GTPγS assay); assay: Receptor Binding Assay ([125I] IL-8, Ki) or [35S]-GTPγS Binding Assay (Kb) for human CXCR2 receptor; conditions: CHO-K1 membranes expressing human CXCR2; Ki from Receptor Binding Assay, Kb from [35S]-GTPγS Binding Assay; table does not say which applies per value; compounds are trifluoroacetic acid salts
Sequence (P25025 whole entry): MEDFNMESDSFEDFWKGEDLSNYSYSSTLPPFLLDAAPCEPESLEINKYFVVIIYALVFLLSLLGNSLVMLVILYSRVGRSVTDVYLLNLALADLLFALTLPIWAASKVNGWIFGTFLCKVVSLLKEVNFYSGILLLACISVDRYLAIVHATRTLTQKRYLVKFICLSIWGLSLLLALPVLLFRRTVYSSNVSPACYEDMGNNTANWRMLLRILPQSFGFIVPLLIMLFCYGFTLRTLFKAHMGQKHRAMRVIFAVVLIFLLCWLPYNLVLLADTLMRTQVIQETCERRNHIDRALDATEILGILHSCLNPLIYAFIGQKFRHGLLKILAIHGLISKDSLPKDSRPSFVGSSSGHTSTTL
Number in nM, nothing else.

Some compounds with known Ki results, for comparison:
> print(dat)
                               given.smiles                        measurement.target  reported.result
1  O=C(O)c1cc(F)cc2nc(Nc3cccc(Cl)c3Cl)[nH]c12  Human recombinant CXCR2 receptor (Homo sapiens, UniProt P25025)              200
2  O=C(O)c1cccc2nc(Nc3ccccc3-c3ccccc3)[nH]c12  Human recombinant CXCR2 receptor (Homo sapiens, UniProt P25025)             1200
3     Cc1c(F)cccc1Nc1nc2cccc(C(=O)O)c2[nH]1  Human recombinant CXCR2 receptor (Homo sapiens, UniProt P25025)              800
4  Cn1ccc(-c2cc(C(=O)O)c3[nH]c(Nc4cccc(Cl)c4Cl)nc3c2)n1  Human recombinant CXCR2 receptor (Homo sapiens, UniProt P25025)             1800

Then there is this compound:
Return reported Ki; argument: `O=C(O)c1cc(-c2ccoc2)cc2nc(Nc3cccc(Cl)c3Cl)[nH]c12`
1500
